Reference source: patent US20240270821A1

Biological target: hGLP-1R (Homo sapiens)
Sequence (P43220 24-463): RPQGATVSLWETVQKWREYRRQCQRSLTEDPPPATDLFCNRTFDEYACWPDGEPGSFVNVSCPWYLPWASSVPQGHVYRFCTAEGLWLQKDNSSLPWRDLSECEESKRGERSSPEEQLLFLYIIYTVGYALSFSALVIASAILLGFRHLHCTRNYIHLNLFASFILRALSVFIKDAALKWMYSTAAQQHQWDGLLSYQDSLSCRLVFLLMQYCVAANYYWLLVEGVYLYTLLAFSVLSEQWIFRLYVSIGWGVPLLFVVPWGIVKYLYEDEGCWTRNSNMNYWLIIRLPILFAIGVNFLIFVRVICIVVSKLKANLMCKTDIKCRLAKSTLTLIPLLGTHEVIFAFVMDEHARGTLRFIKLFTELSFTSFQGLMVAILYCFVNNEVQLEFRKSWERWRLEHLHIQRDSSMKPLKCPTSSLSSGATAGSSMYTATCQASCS
Assay: Functional cAMP activity in the presence of 1% HSA
Type: cell-based
Conditions: read-out: cAMP Rel EC50, hGLP-1R
Starred links: 1 amine or outer side, 2 acyl side, 3 side chain; linkers in the order of their positions; H or OH if unused. Non-standard residues stand in square brackets, D forms with d. Groups on a side chain read outwards from the residue. No end group written: not given here. *: point of attachment. C20 diacid = O=C(O)CCCCCCCCCCCCCCCCCCC(=O)*; C18 diacid = O=C(O)CCCCCCCCCCCCCCCCC(=O)*; αMePhe(2-F) = C[C@](N)(Cc1ccccc1F)C(=O)O; γGlu = O=C(O)[C@H](CCC(=O)[*:2])N[*:1]; αMe4Pal = C[C@](N)(Cc1ccncc1)C(=O)O; αMeY = C[C@](N)(Cc1ccc(O)cc1)C(=O)O; αMeF = C[C@](N)(Cc1ccccc1)C(=O)O; 4Pal = N[C@@H](Cc1ccncc1)C(=O)O; αMeL = CC(C)C[C@](C)(N)C(=O)O; αMeS = C[C@](N)(CO)C(=O)O; Orn = NCCC[C@H](N)C(=O)O; Dab = NCC[C@H](N)C(=O)O; AEEA = NCCOCCOCC(=O)O; Aib = CC(C)(N)C(=O)O
MEASUREMENT_KIND: pEC50
// pEC50 here means minus log10 of the molar concentration (mol/L)

Q: Report measured pEC50 on hGLP-1R (Homo sapiens); entry: H-Y[Aib]QGTFTSDFS[Orn][αMeL]LDKK([AEEA-γGlu-C18 diacid])AQ[Aib]AFIEYLLE[Aib]G[4Pal]SSGAPPPSGE-NH2 [Example 248]
A: 6.36

Q: Report measured pEC50 on hGLP-1R (Homo sapiens); entry: H-Y[Aib]QGT[αMePhe(2-F)]TSD[4Pal]SI[αMeL]LD[Orn]K([AEEA-γGlu-C18 diacid])AQ[αMe4Pal][Orn]FI[dE][αMeY]LIEGGPSSGEPPPEGE-NH2 [Example 675]
A: 7.60

Q: Report measured pEC50 on hGLP-1R (Homo sapiens); entry: H-Y[Aib]QGTFTSD[4Pal]SQ[αMeL]LD[Orn]K([AEEA-γGlu-C18 diacid])AQ[αMe4Pal]AFIE[αMeY]LIA[Aib]GPSSGAPPPSGSEE-NH2 [Example 1110]
A: 7.28

Q: Report measured pEC50 on hGLP-1R (Homo sapiens); entry: H-Y[Aib]QGT[αMePhe(2-F)]TSDYSILLDKK([γGlu-γGlu-C18 diacid])AQ[Aib]AFIEYLEEGGPSSGAPPPEEG-NH2 [Example 471]
A: 7.42

Q: Report measured pEC50 on hGLP-1R (Homo sapiens); entry: H-Y[Aib]QGTFTSD[4Pal]S[Orn][αMeL]LDKK([γGlu-γGlu-C18 diacid])AQ[αMe4Pal]AFIE[αMeY]LIEGGPSSGAPPPSGSEE-NH2 [Example 967]
A: 6.46

Q: Report measured pEC50 on hGLP-1R (Homo sapiens); entry: H-Y[Aib]QGT[αMePhe(2-F)]TSD[4Pal][αMeS]I[αMeL]LD[Orn]K([AEEA-γGlu-C18 diacid])AQ[αMe4Pal]EFI[dE][αMeY]LVEGGPSSGAPPPTGE-NH2 [Example 1152]
A: 7.36

Q: Report measured pEC50 on hGLP-1R (Homo sapiens); entry: H-Y[Aib]QGT[αMePhe(2-F)]TSD[4Pal]SILLDKK([γGlu-γGlu-C18 diacid])AQ[Aib]AFIEYLEEGGPSSGEPPPSGTGE-NH2 [Example 607]
A: 6.86

Q: Report measured pEC50 on hGLP-1R (Homo sapiens); entry: Y[Aib]QGTFTSDFS[Orn][αMeL]LDKK([AEEA-γGlu-C18 diacid])AQ[Aib]AFIEYLIE[Aib]GPSSGAPPPSGS-NH2 [Example 796]
A: 6.90

Q: Report measured pEC50 on hGLP-1R (Homo sapiens); entry: H-Y[Aib]QGTFTSDFSK[αMeL]LDKK([AEEA-γGlu-C20 diacid])AQ[Aib]AFIEYLLAGGPSSGEPPPSEG[AEEA]-NH2 [Example 32]
A: 6.37

Q: Report measured pEC50 on hGLP-1R (Homo sapiens); entry: H-Y[Aib]QGT[αMePhe(2-F)]TSD[4Pal][αMeS]I[αMeL]LD[Orn]K([AEEA-γGlu-C18 diacid])AQ[αMe4Pal]EFI[dE][αMeY]LIEGGPSSGEPPPSGS-NH2 [Example 710]
A: 7.54

Q: Report measured pEC50 on hGLP-1R (Homo sapiens); entry: H-Y[Aib]QGTFTSDFS[Orn][αMeL]LDKK([AEEA-γGlu-C20 diacid])AQ[Aib]AFIEWLLEGGPSSGAPPPSGS-NH2 [Example 78]
A: 6.25

Q: Report measured pEC50 on hGLP-1R (Homo sapiens); entry: Y[Aib]QGT[αMeF]TSD[4Pal][αMeS]I[αMeL]LD[Orn]K([AEEA-γGlu-C18 diacid])AQ[αMe4Pal]EFI[dE][αMeY]LIEGGPSSGAPPPSGGGE-NH2 [Example 1168]
A: 7.18

Q: Report measured pEC50 on hGLP-1R (Homo sapiens); entry: H-Y[Aib]QGTFTSD[4Pal]SQ[αMeL]LD[Orn]K([AEEA-γGlu-C18 diacid])AQ[αMe4Pal]AFIEYLIQ[Aib]GPSSGEPPPSGSEE-NH2 [Example 1096]
A: 6.71

Q: Report measured pEC50 on hGLP-1R (Homo sapiens); entry: H-Y[Aib]QGTFTSD[4Pal]S[Dab][αMeL]LDKK([AEEA-γGlu-C18 diacid])AQ[Aib]AFIEYLIE[Aib]GESSGAPPPSGS-NH2 [Example 188]
A: 6.36

Q: Report measured pEC50 on hGLP-1R (Homo sapiens); entry: H-Y[Aib]QGTFTSD[4Pal]SQ[αMeL]LDKK([AEEA-γGlu-C18 diacid])AQ[αMe4Pal]AFIEYLIE[Aib]GESSGAPPPSGS-NH2 [Example 226]
A: 6.45

Q: Report measured pEC50 on hGLP-1R (Homo sapiens); entry: Y[Aib]QGTFTSD[4Pal]S[Orn][αMeL]LD[Orn]K([AEEA-γGlu-C18 diacid])AQ[Aib]AFIE[αMeY]LLEGGPSSGAPPPSGS-NH2 [Example 933]
A: 6.25

Q: Report measured pEC50 on hGLP-1R (Homo sapiens); entry: H-Y[Aib]QGTFTSDFS[Orn][αMeL]LDKK([AEEA-γGlu-C18 diacid])AQ[αMe4Pal]DFIEYLIE[Aib]GPSSGAPPPSGS-NH2 [Example 880]
A: 6.03

Q: Report measured pEC50 on hGLP-1R (Homo sapiens); entry: H-Y[Aib]QGTFTSD[4Pal]SQ[αMeL]LD[Orn]K([γGlu-γGlu-C18 diacid])AQ[αMe4Pal]AFIEYLIE[dA]GPSSGEPPPSGS-NH2 [Example 1019]
A: 6.79

Q: Report measured pEC50 on hGLP-1R (Homo sapiens); entry: H-Y[Aib]QGTFTSDFS[Orn][αMeL]LDKK([AEEA-γGlu-C18 diacid])AQ[Aib]AFIEYLLEGGHSSGEPPPGGS-NH2 [Example 164]
A: 6.02

Q: Report measured pEC50 on hGLP-1R (Homo sapiens); entry: H-Y[Aib]QGTFTSDFS[Orn][αMeL]LDKK([AEEA-γGlu-C18 diacid])AQ[Aib]AFIEWLLEGGPSSGAPPPEGS-NH2 [Example 121]
A: 6.46

Q: Report measured pEC50 on hGLP-1R (Homo sapiens); entry: H-Y[Aib]QGTFTSDYSR[αMeL]LDKK([AEEA-γGlu-C18 diacid])AQ[Aib]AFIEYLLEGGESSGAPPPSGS-NH2 [Example 361]
A: 6.42

Q: Report measured pEC50 on hGLP-1R (Homo sapiens); entry: H-Y[Aib]QGTFTSDYSI[αMeL]LDKIAAK([AEEA-AEEA-γGlu-C20 diacid])QFVEYLIAGGPSSGEPPPSEG-NH2 [Example 312]
A: 6.23
